Test system: Staphylococcus aureus
Assay: Antibacterial activity against methicillin-resistant Staphylococcus aureus ATCC 33591 by micro-broth dilution method
Format: functional
List of MIC values.
readout type: MIC (mg/L)

INSERT INTO measurements (molecule, unit_of_measure, comparison_sign, value) VALUES
  ('C/C(O)=C1\C(=O)[C@H](CC(C)C)N(Cc2ccc(F)cc2)C1=O', 'mg/L', '=', 25),
  ('CC(C)=CCCC(C)CCN1C(=O)/C(=C(/C)O)C(=O)[C@@H]1CC(C)C (stereo not given in full)', 'mg/L', '=', 0.8),
  ('CCCCCCCCCCN1C(=O)/C(=C(/C)O)C(=O)[C@@H]1Cc1ccccc1', 'mg/L', '=', 0.8),
  ('CCN1C(=O)/C(=C(/C)O)C(=O)[C@@H]1Cc1ccccc1', 'mg/L', '>', 200),
  ('CCCCN1C(=O)/C(=C(/C)O)C(=O)[C@@H]1CC(C)C', 'mg/L', '=', 6.25);

Data origin: ChEMBL document CHEMBL1141572
